- assay_overview: BSK_3C_TissueFactor: BioMAP Diversity Plus: 3C Assay for Tissue Factor Biomarker Activity (AID 2282997)
- condition_description: BioMAP 3C HUVEC, tissue factor biomarker readout; actives raise or lower the signal
The source made the active and inactive calls. Rule for the calls: active = hit-call score of the fitted dose curve at least 0.9, where 1 is the maximum; inactive = score below 0.9.
Response enum: active, inactive

Please share the test call associated with c1ccc2ncccc2c1 .
inactive

Please share the test call associated with Cc1cccc(O)c1C .
inactive

Please share the test call associated with CCN(CC)C(=S)SSC(=S)N(CC)CC .
active

Please share the test call associated with NC(N)=O .
inactive

Please share the test call associated with CCCCCCOC(=O)CC(CC(=O)OCCCCCC)(OC(=O)CCC)C(=O)OCCCCCC .
inactive

Please share the test call associated with Cc1ccc(S(=O)(=O)NC(=O)NN2CCCCCC2)cc1 .
inactive

Please share the test call associated with CCCOc1ccc(S(=O)(=O)N2CCN(CC)CC2)cc1-c1nc2c(CC)n(Cc3ccccn3)nc2c(=O)[nH]1 .
inactive

Please share the test call associated with COS(C)(=O)=O .
inactive

Please share the test call associated with OCCOCCOCCO .
inactive

Please share the test call associated with NC(=O)NN=Cc1ccc([N+](=O)[O-])o1 .
inactive

Please share the test call associated with Nc1ccn([C@@H]2O[C@H](CO)[C@@H](O)[C@@H]2O)c(=O)n1 .
inactive

Please share the test call associated with CCOC(N)=O .
inactive

Please share the test call associated with OCCNCCO .
inactive

Please share the test call associated with CC(C)c1nnc2ccc(-c3ocnc3-c3cc(F)ccc3F)cn12 .
active

Please share the test call associated with C=CN1CCCC1=O .
inactive

Please share the test call associated with CCCCCCCCCC .
inactive

Please share the test call associated with O=C(O)c1cccc(C[C@@H]2COc3ccc(OCc4nc5cc(F)ccc5s4)cc3[C@@H]2O)c1 .
inactive

Please share the test call associated with FC(F)(F)COC(OCC(F)(F)F)OCC(F)(F)F .
inactive

Please share the test call associated with CCCCCCCCCCCCCCO .
active

Please share the test call associated with O=C1CN(N=Cc2ccc([N+](=O)[O-])o2)C(=O)N1 .
inactive

Please share the test call associated with OC[C@H]1O[C@@](CO)(O[C@H]2O[C@H](CO)[C@@H](O)[C@H](O)[C@H]2O)[C@@H](O)[C@@H]1O .
inactive

Please share the test call associated with O=C(O)c1ccc2c(c1)nc(C(=O)NC1CCN(C3CC3)CC1)n2Cc1cc(-c2ccc(Cl)s2)on1 .
inactive

Please share the test call associated with O=S(=O)(O)c1ccc(N=Nc2c(O)ccc3cc(S(=O)(=O)O)ccc23)cc1 .
inactive

Please share the test call associated with O=C(O)c1cccc(C(=O)O)c1 .
inactive

---

- Read-out: Interleukin-8 (IL8), CXCL8 (gene 3576)
- assay_overview: BSK_SAg_IL8: BioMAP Diversity Plus: SAg Assay for Interleukin-8 (IL8) Biomarker Activity (AID 2283094)
- condition_description: primary human HUVEC with PBMC; actives raise or lower the signal
The source made the active and inactive calls. Rule for the calls: active = hit-call score of the fitted dose curve at least 0.9, where 1 is the maximum; inactive = score below 0.9.
Response enum: active, inactive

Please share the test call associated with CC(C)c1nnc2ccc(-c3ocnc3-c3cc(F)ccc3F)cn12 .
active

Please share the test call associated with CCCCN1C(=O)[C@@H]([C@H](O)C2CCCCC2)NC(=O)C12CCN(Cc1ccc(Oc3ccc(C(=O)O)cc3)cc1)CC2 .
inactive

Please share the test call associated with OC[C@H]1O[C@@](CO)(O[C@H]2O[C@H](CO)[C@@H](O)[C@H](O)[C@H]2O)[C@@H](O)[C@@H]1O .
inactive

Please share the test call associated with Cc1ccc(S(=O)(=O)NC(=O)NN2CCCCCC2)cc1 .
inactive

Please share the test call associated with CCn1nc(C)c2c1C(=O)NCC(c1ccc(O)cc1)=N2 .
inactive

Please share the test call associated with NC(=O)N1c2ccccc2C=Cc2ccccc21 .
inactive

Please share the test call associated with O=C(O)[C@H](O)[C@@H](O)C(=O)O .
inactive

Please share the test call associated with Cc1cccc(O)c1C .
inactive

Please share the test call associated with O=C(O)c1cccc(C(=O)O)c1 .
inactive

Please share the test call associated with c1ccc2ncccc2c1 .
inactive

Please share the test call associated with c1ccc2cc3ccccc3cc2c1 .
inactive

Please share the test call associated with OC(O)(C(F)C(O)(O)C(F)(F)F)C(F)(F)F .
inactive

---

- Read-out: Apoptosis regulator Bcl-2 (Homo sapiens)
- assay_overview: LTEA_HepaRG_BCL2: Life Technologies and Expression Analysis (LTEA) Assay for Bcl-2 gene using HepaRG (AID 2283475);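 note: BCL2 transcript by TaqMan qRT-PCR normalised to ACTB GAPDH and POLR2A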
- condition_description: mRNA level, 48 h; actives raise or lower the signal
Activity calls are given as the source filed them. Rule for the calls: active = hit-call score of the fitted dose curve at least 0.9, where 1 is the maximum; inactive = score below 0.9.
Response enum: Y for active, N for inactive

Please share the test call associated with CCc1cccc(CC)c1N .
N

Please share the test call associated with Cc1nccn1-c1ccc(Sc2cccc(C3(C(N)=O)CCOCC3)c2)cc1 .
Y

Please share the test call associated with CC(C)c1nnc2ccc(-c3ocnc3-c3cc(F)ccc3F)cn12 .
N

Please share the test call associated with OCCOCCOCCO .
N

Please share the test call associated with CC1(C)C(=O)N(Cl)C(=O)N1Cl .
N

Please share the test call associated with C=CCc1cc(S(=O)(=O)c2ccc(O)c(CC=C)c2)ccc1O .
N

Please share the test call associated with COc1cc2c(c(OC)c1OC)-c1ccc(OC)c(=O)cc1[C@@H](NC(C)=O)CC2 .
N

---

- Read-out: Cytochrome P450 4A22 (Homo sapiens)
- assay_overview: LTEA_HepaRG_CYP4A22: Life Technologies and Expression Analysis (LTEA) Assay for Cytochrome P450 4A22 (CYP4A22) using HepaRG (AID 2283495)
- condition_description: mRNA level, 48 h; actives raise or lower the signal
Calls of active or inactive are those of the source. How the source made its calls: active means hit-call score of the fitted dose curve at least 0.9, where 1 is the maximum; inactive means score below 0.9.
Response enum: active, inactive

Please share the test call associated with Cn1cc[nH]c1=S .
inactive

Please share the test call associated with CCCCOC(=O)c1ccccc1 .
inactive

Please share the test call associated with CCOC(N)=O .
inactive

Please share the test call associated with CCn1nc(C)c2c1C(=O)NCC(c1ccc(O)cc1)=N2 .
active

Please share the test call associated with Cc1nc(-c2ccccn2)ncc1C(=O)Nn1cc(C)c2cc(F)ccc21 .
active

Please share the test call associated with O=C(O)c1ccc2c(c1)nc(C(=O)NC1CCN(C3CC3)CC1)n2Cc1cc(-c2ccc(Cl)s2)on1 .
inactive

Please share the test call associated with CCCOc1ccc(S(=O)(=O)N2CCN(CC)CC2)cc1-c1nc2c(CC)n(Cc3ccccn3)nc2c(=O)[nH]1 .
active

Please share the test call associated with NC(=O)N1c2ccccc2C=Cc2ccccc21 .
inactive

Please share the test call associated with NC(N)=O .
inactive

Please share the test call associated with O=S(=O)(O)c1ccc(N=Nc2c(O)ccc3cc(S(=O)(=O)O)ccc23)cc1 .
inactive

Please share the test call associated with OC(Cn1cncn1)(Cn1cncn1)c1ccc(F)cc1F .
inactive

Please share the test call associated with CC(C)CC(C)O (stereo unspecified) .
inactive

Please share the test call associated with COCc1nnc(-c2ccc[n+]([O-])c2)n1-c1c(Cl)c(Cl)cc2[nH]c(=O)c(=O)[nH]c12 .
inactive

Please share the test call associated with c1ccc2ncccc2c1 .
inactive

Please share the test call associated with CCc1ccc(O)c(C(C)(C)C)c1 .
inactive

Please share the test call associated with O=S1(=O)CCCO1 .
inactive

Please share the test call associated with CCCCN1C(=O)[C@@H]([C@H](O)C2CCCCC2)NC(=O)C12CCN(Cc1ccc(Oc3ccc(C(=O)O)cc3)cc1)CC2 .
active

Please share the test call associated with COc1cc(C(C)C)c2c(c1)S(=O)(=O)N(COc1cc(=O)n3cccc(OCCN4CCCCC4)c3n1)C2=O .
active

Please share the test call associated with c1ccc2cc3ccccc3cc2c1 .
inactive

Please share the test call associated with C=CCc1cc(S(=O)(=O)c2ccc(O)c(CC=C)c2)ccc1O .
active

Please share the test call associated with OCC(CO)(CO)CO .
inactive

Please share the test call associated with CCCCCCCCN(C)C .
inactive

Please share the test call associated with CC1(C)C(=O)N(Cl)C(=O)N1Cl .
inactive

Please share the test call associated with CC[C@H](C)C(=O)O[C@H]1C[C@H](O)C=C2C=C[C@H](C)[C@H](CC[C@@H](O)C[C@@H](O)CC(=O)O)[C@H]21 .
inactive

Please share the test call associated with Cc1nccn1-c1ccc(Sc2cccc(C3(C(N)=O)CCOCC3)c2)cc1 .
active

Please share the test call associated with CCCCCOC(C)=O .
inactive

---

- test_system: guinea pig Serotonin, 5-Hydroxytryptamine Receptor 4 (5HT4), HTR4 (gene 100135548) (UniProt O70528)
- Sequence (O70528 whole entry, looked up): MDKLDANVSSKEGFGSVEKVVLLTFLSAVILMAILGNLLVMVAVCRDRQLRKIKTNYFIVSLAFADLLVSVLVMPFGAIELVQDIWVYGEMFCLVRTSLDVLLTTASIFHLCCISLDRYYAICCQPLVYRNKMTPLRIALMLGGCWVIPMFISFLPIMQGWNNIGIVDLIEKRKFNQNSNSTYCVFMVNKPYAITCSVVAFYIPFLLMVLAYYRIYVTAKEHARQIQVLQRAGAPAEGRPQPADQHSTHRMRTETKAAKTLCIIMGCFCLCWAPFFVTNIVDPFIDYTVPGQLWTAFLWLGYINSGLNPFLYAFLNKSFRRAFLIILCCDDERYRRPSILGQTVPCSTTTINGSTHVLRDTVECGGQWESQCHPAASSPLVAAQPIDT
- assay_overview: NVS_GPCR_g5HT4: NovaScreen (NVS) G Protein-Coupled Receptor Assay for guinea pig Serotonin, 5-Hydroxytryptamine Receptor 4 (5HT4) (AID 2283294)
Results filed as inconclusive are left out. Active and inactive are the calls of the source. Rule for the calls: active = hit-call score of the fitted dose curve at least 0.9, where 1 is the maximum; inconclusive = response in the unintended direction; inactive = score below 0.9.
Response enum: active, inactive

Please share the test call associated with CCN(CC)C(=S)SSC(=S)N(CC)CC .
active

Please share the test call associated with C[C@@H](Oc1ccc(CNC(=O)c2cccnc2Oc2ccc3c(c2)OCO3)c(F)c1)C(=O)O .
inactive

Please share the test call associated with CC(C)C(=O)Nc1ccc([N+](=O)[O-])c(C(F)(F)F)c1 .
active

Please share the test call associated with CCCCCCCCCC .
inactive

Please share the test call associated with c1ccc(C(O[C@@H]2CCCN(CCc3ccc4c(c3)OCO4)C2)c2ccccc2)cc1 .
active

Please share the test call associated with Cc1nccn1-c1ccc(Sc2cccc(C3(C(N)=O)CCOCC3)c2)cc1 .
inactive
